Assay: Tmax in cynomolgus monkey plasma at 9 mg/kg, administered through oral gavage measured after 24 hrs
Type: ADME, organism-based, Macaca fascicularis
MEASUREMENT_LABEL: Tmax

>>> df
                   record_smiles  measured_value
0  CCCC[C@@H](CCO)Nc1nc(N)ncc1OC      0.5 to 2 h

====

LED: recorded values
Target: Toll-like receptor 8 (Homo sapiens) (UniProt Q9NR97)
Sequence (Q9NR97 whole entry): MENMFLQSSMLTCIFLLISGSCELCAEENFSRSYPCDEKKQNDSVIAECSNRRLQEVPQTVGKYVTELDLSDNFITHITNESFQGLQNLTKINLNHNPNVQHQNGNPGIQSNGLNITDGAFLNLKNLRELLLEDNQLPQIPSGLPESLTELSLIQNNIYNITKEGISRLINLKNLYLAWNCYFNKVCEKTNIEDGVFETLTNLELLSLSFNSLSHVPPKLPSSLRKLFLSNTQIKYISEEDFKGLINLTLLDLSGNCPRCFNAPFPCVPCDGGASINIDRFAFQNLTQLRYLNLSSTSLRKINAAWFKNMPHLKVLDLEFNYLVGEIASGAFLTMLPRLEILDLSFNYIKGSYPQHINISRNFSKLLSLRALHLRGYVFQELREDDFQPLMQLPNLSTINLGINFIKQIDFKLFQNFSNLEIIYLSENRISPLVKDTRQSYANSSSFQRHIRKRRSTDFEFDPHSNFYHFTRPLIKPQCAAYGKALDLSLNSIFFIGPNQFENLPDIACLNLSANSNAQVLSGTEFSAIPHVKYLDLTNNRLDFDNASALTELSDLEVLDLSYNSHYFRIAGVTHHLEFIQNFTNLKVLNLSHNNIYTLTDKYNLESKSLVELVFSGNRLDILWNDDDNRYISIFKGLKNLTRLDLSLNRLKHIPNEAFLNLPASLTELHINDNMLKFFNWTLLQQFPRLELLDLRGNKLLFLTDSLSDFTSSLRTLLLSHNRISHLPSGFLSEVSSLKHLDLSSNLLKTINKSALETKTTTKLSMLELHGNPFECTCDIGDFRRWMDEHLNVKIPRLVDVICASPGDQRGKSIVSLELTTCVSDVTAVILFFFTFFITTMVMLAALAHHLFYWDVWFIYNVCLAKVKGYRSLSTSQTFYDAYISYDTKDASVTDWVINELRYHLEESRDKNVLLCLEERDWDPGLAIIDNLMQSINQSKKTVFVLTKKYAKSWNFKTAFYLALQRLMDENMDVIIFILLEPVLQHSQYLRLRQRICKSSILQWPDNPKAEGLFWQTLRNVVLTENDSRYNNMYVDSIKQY
Test: Agonist activity at human TLR8 expressed in HEK293 cells assessed as measured after 6 hrs by NF-kappaB luciferase reporter gene assay
Format: cell-based
MEASUREMENT_LABEL: LED (µM)

                                    compound  measurement_label  operator  measured_value
 0                CCCCNc1nc(N)ncc1OCc1cnccn1                LED         =            2.28
 1              CCCCNc1nc(N)ncc1OCc1csc(C)n1                LED         =            0.74
 2             CCCCNc1nc(N)ncc1OCc1nc(C)oc1C                LED         =            1.58
 3             CCCCNc1nc(N)nc(C)c1OCc1ccccc1                LED         =             7.5
 4          CCCCNc1nc(N)ncc1OCc1nccc(OC)c1OC                LED         =             0.6
 5             CCCC[C@@H](CCO)Nc1nc(N)ncc1OC                LED         =             1.6
 6              CCCCNc1nc(N)ncc1OCc1cnn(C)c1                LED         =            13.7
 7               CCC[C@@H](CO)Nc1nc(N)ncc1OC                LED         =            0.25
 8             CCCCNc1nc(N)ncc1OCc1cc(C)nn1C                LED         =            0.92
 9                    CCCCNc1nc(N)ncc1OC(C)C                LED         =             0.7
10              CCC[C@@H](CCO)Nc1nc(N)ncc1OC                LED         =             1.4
11             CCCCNc1nc(N)ncc1OCc1c(C)noc1C                LED         =               1
12                      CCCCCNc1nc(N)ncc1OCC                LED         =             3.2
13             COc1cnc(N)nc1N[C@H](CO)CC(C)C                LED         =              16
14                 CC[C@H](C)CNc1nc(N)ncc1OC                LED         >              25
15                CCCCNc1nc(N)ncc1OCc1ccccc1                LED         =             2.4
16           CCCCNc1nc(N)ncc1OCc1nc2ccccc2s1                LED         =             2.6
17          CCCCNc1nc(N)ncc1OCc1ccc2ccccc2n1                LED         =            0.89
18                      CCCCNc1nc(N)ncc1OCCC                LED         =             4.5
19          CCCCNc1nc(N)ncc1OCc1nccc2ccccc12                LED         =            0.14
20                 CCCCNc1nc(N)ncc1OCc1ncco1                LED         =             3.6
21              CCCCNc1nc(N)ncc1OCCCc1ccccc1                LED         =             7.9
22        CC[C@H](C)[C@@H](CO)Nc1nc(N)ncc1OC                LED         =            0.66
23                        C=CCNc1nc(N)ncc1OC                LED         =             8.5
24            COc1cnc(N)nc1N[C@H](CCO)CC(C)C                LED         =             2.3
25  CCC(C)[C@H](CCO)Nc1nc(N)ncc1OC (some centres undefined)                LED         =             2.6
26           CCCCNc1nc(N)ncc1OCc1cc2ccccn2n1                LED         =             1.3
27        CCCCNc1nc(N)ncc1OCc1nc2ccccc2[nH]1                LED         =            0.65
28                       CCCCNc1nc(N)ncc1OCC                LED         =             1.1

Just for reference, ChEMBL document CHEMBL4428063 is where these values come from.
